ASSAYED TARGET: Human Factor D (Homo sapiens (Human), UniProt P00746)
Sequence (P00746 26-253): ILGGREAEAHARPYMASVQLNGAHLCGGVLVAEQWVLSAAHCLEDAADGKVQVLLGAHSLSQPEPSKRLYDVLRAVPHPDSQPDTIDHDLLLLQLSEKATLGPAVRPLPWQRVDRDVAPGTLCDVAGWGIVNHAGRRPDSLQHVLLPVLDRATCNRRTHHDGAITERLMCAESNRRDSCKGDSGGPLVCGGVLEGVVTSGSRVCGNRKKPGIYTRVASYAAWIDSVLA
PROTOCOL: Human Factor D Assay
Type: biochemical
REPORTED CONDITIONS: Table 5; Human Factor D 80 nM, substrate Z-L-Lys-SBzl; read-out: IC50 (Stars)

MOLECULE	IC50
CC(=O)c1nn(CC(=O)N2C[C@H](F)C[C@H]2C(=O)Nc2cccc(Br)n2)c2cc(S(C)(=N)=O)ccc12 (stereo partly shown) [Compound T-5]	< 1000 nM
CC(=O)c1nn(CC(=O)N2[C@H]3C[C@@]3(CN(C)C)C[C@H]2C(=O)Nc2nc(Br)ccc2C)c2cc(C(=O)NS(=O)(=O)C3CC3)ccc12 [Compound T-50]	1000 to 10000 nM
CC(=O)c1nn(CC(=O)N2[C@H]3C[C@@]3(CN(C)C)C[C@H]2C(=O)NCc2cccc(Cl)c2F)c2cc(P(C)(=O)O)ccc12 [Compound T-38]	1000 to 10000 nM
CC(=O)c1nn(CC(=O)N2C[C@H](F)C[C@H]2C(=O)Nc2cccc(Br)n2)c2c1CCCC2 [Compound T-37]	1000 to 10000 nM
CC(=O)c1nn(CC(=O)N2C[C@H]3C[C@H]3[C@H]2C(=O)Nc2cccc(Br)n2)c2cc(S(C)(=N)=O)ccc12 (stereo partly shown) [Compound T-7]	< 1000 nM
CC(=O)c1nn(CC(=O)N2C[C@H]3C[C@H]3[C@H]2C(=O)Nc2nc(Br)ccc2C)c2cc(C)sc12 [Compound T-2]	< 1000 nM
COC(=O)c1cc(C(C)=O)cn1CC(=O)N1C[C@H](F)C[C@H]1C(=O)Nc1cccc(Br)n1 [Compound T-16]	1000 to 10000 nM
CC(=O)c1nn(CC(=O)N2[C@H](C(=O)Nc3nc(Br)ccc3C)C[C@@]3(CN(C)C)C[C@@H]23)c2cc(C(=O)NS(=O)(=O)C3CC3)ccc12 [Compound T-49]	< 1000 nM
CC(=O)c1nn(CC(=O)N2[C@H](C(=O)Nc3nc(Br)ccc3C)C[C@@]3(CN4CC5(CCCC5)C4)C[C@@H]23)c2c(C)cccc12 [Compound T-42]	< 1000 nM
CC(=O)c1cn(CC(=O)N2C3CC3(CN(C)C)C[C@H]2C(=O)NCc2cccc(Cl)c2F)c2cc(P(=O)(O)O)ccc12 (stereo partly shown) [Compound T-46]	1000 to 10000 nM
CC(=O)c1cc(C(N)=O)n(CC(=O)N2C[C@H](F)C[C@H]2C(=O)Nc2cccc(Br)n2)n1 [Compound T-23]	< 1000 nM
CC(=O)c1nn(CC(=O)N2[C@H](C(=O)Nc3nc(Br)ccc3C)C[C@@]3(C)C[C@@H]23)c2cc(S(C)(=N)=O)ccc12 (stereo partly shown) [Compound T-33]	< 1000 nM
CC(=O)c1nn(CC(=O)N2[C@H](C(=O)Nc3nc(Br)ccc3C)C[C@@]3(C)C[C@@H]23)c2ccccc12 [Compound T-13]	< 1000 nM
